organism: Ovis aries; assay: Inhibition of sheep tubulin assembly assessed as half inhibitory molar ratio of compound to tubulin by DAPI fluorometric assay; design: unit not given here
INH under 0.5 gets Criterion met, anything at or over 0.5 gets Criterion not met.

Ask: Decide: INH of "COc1ccc(CNc2nc(NCCOC(=O)CCc3cn(CCC(=O)N[C@H]4CCc5cc(OC)c(OC)c(OC)c5-c5ccc(OC)c(=O)cc54)nn3)nc(NCc3ccc(OC)cc3)n2)cc1" strictly below 0.5?
Reply: Criterion met

Ask: Decide: INH of "COc1ccc(CNc2nc(NCCOC(=O)CCCCc3cn(CCC(=O)N[C@H]4CCc5cc(OC)c(OC)c(OC)c5-c5ccc(OC)c(=O)cc54)nn3)nc(NCc3ccc(OC)cc3)n2)cc1" strictly below 0.5?
Reply: Criterion met

Ask: Decide: INH of "COc1ccc(CNc2nc(NCCOC(=O)CCCCCCCCCCCCCCCc3cn(CCCCCC(=O)N[C@H]4CCc5cc(OC)c(OC)c(OC)c5-c5ccc(OC)c(=O)cc54)nn3)nc(NCc3ccc(OC)cc3)n2)cc1" strictly below 0.5?
Reply: Criterion not met

Ask: Decide: INH of "COc1ccc(CNc2nc(NCCOC(=O)COCCOCCOCCOCCOCCOCCOCCOCCOCCOCCOCC(=O)N[C@H]3CCc4cc(OC)c(OC)c(OC)c4-c4ccc(OC)c(=O)cc43)nc(NCc3ccc(OC)cc3)n2)cc1" strictly below 0.5?
Reply: Criterion not met

Ask: Decide: INH of "COc1ccc(CNc2nc(NCCO)nc(NCc3ccc(OC)cc3)n2)cc1" strictly below 0.5?
Reply: Criterion met

Ask: Decide: INH of "COc1ccc(CNc2nc(NCCOC(=O)CCCc3cn(CCCCCCCCCC(=O)N[C@H]4CCc5cc(OC)c(OC)c(OC)c5-c5ccc(OC)c(=O)cc54)nn3)nc(NCc3ccc(OC)cc3)n2)cc1" strictly below 0.5?
Reply: Criterion not met

Ask: Decide: INH of "COc1ccc(CNc2nc(NCCOC(=O)CCCc3cn(CCCCCC(=O)N[C@H]4CCc5cc(OC)c(OC)c(OC)c5-c5ccc(OC)c(=O)cc54)nn3)nc(NCc3ccc(OC)cc3)n2)cc1" strictly below 0.5?
Reply: Criterion met

Ask: Decide: INH of "COc1ccc(CNc2nc(NCc3ccc(OC)cc3)nc(NCc3cn(CCCCCCCCCC(=O)N[C@H]4CCc5cc(OC)c(OC)c(OC)c5-c5ccc(OC)c(=O)cc54)nn3)n2)cc1" strictly below 0.5?
Reply: Criterion not met

Ask: Decide: INH of "COc1ccc(CNc2nc(NCCOC(=O)CCCCCCCCc3cn(CCC(=O)N[C@H]4CCc5cc(OC)c(OC)c(OC)c5-c5ccc(OC)c(=O)cc54)nn3)nc(NCc3ccc(OC)cc3)n2)cc1" strictly below 0.5?
Reply: Criterion not met

* * *

assay: Lipophilicity, log D of the compound; assay type: physicochemical; details: octanol/water
Metric Name: logD
Answer as a number with no unit attached.

Ask: Please look at this molecule and report its logD: "COc1ccc(CNc2nc(NCc3ccc(OC)cc3)nc(NCc3cn(CCCCCCCCCC(=O)N[C@H]4CCc5cc(OC)c(OC)c(OC)c5-c5ccc(OC)c(=O)cc54)nn3)n2)cc1"
Reply: 8.465

Ask: Please look at this molecule and report its logD: "COc1ccc(CNc2nc(NCCOC(=O)CCCCCCCCc3cn(CCC(=O)N[C@H]4CCc5cc(OC)c(OC)c(OC)c5-c5ccc(OC)c(=O)cc54)nn3)nc(NCc3ccc(OC)cc3)n2)cc1"
Reply: 7.612

Ask: Please look at this molecule and report its logD: "COc1ccc(CNc2nc(NCCOC(=O)CCCc3cn(CCCCCC(=O)N[C@H]4CCc5cc(OC)c(OC)c(OC)c5-c5ccc(OC)c(=O)cc54)nn3)nc(NCc3ccc(OC)cc3)n2)cc1"
Reply: 6.367

Ask: Please look at this molecule and report its logD: "COc1ccc(CNc2nc(NCCOC(=O)CCCc3cn(CCCCCCCCCC(=O)N[C@H]4CCc5cc(OC)c(OC)c(OC)c5-c5ccc(OC)c(=O)cc54)nn3)nc(NCc3ccc(OC)cc3)n2)cc1"
Reply: 8.738

Ask: Please look at this molecule and report its logD: "COc1ccc(CNc2nc(NCCOC(=O)CCCCCCCCCCCCCCCc3cn(CCCCCC(=O)N[C@H]4CCc5cc(OC)c(OC)c(OC)c5-c5ccc(OC)c(=O)cc54)nn3)nc(NCc3ccc(OC)cc3)n2)cc1"
Reply: 9.814

Ask: Please look at this molecule and report its logD: "COc1ccc(CNc2nc(NCCOC(=O)CCCCc3cn(CCC(=O)N[C@H]4CCc5cc(OC)c(OC)c(OC)c5-c5ccc(OC)c(=O)cc54)nn3)nc(NCc3ccc(OC)cc3)n2)cc1"
Reply: 5.591

Ask: Please look at this molecule and report its logD: "COc1ccc(CNc2nc(NCCOC(=O)COCCOCCOCCOCCOCCOCCOCCOCCOCCOCCOCC(=O)N[C@H]3CCc4cc(OC)c(OC)c(OC)c4-c4ccc(OC)c(=O)cc43)nc(NCc3ccc(OC)cc3)n2)cc1"
Reply: 2.568

Ask: Please look at this molecule and report its logD: "COc1ccc(CNc2nc(NCCOC(=O)CCc3cn(CCC(=O)N[C@H]4CCc5cc(OC)c(OC)c(OC)c5-c5ccc(OC)c(=O)cc54)nn3)nc(NCc3ccc(OC)cc3)n2)cc1"
Reply: 4.815
